The reported numbers originate from patent US8735584B2.

biological target: PKA (Homo sapiens); construct: purchased Caliper Life Sciences; assay: Desktop Profiler kinase panel, PKA; assay type: biochemical; details: 10 micromolar concentration of the compound; read-out: Percent Inhibition PKA
measured_attribute: inhibition at 10 µM

query: Entry under review: CC(=O)Nc1ccc(Oc2ccc3c(=O)[nH]c4ncccc4c3c2)cc1 [Example 81] . Reported inhibition at 10 µM?
result: > 90%

--- query ---
query: Entry under review: NC(=O)c1ccc(Oc2ccc3c(=O)[nH]c4ncccc4c3c2)cc1 [Example 82] . Reported inhibition at 10 µM?
result: 70 to 90%

----------
Recorded inhibition at 10 µM, one value per entry.
biological target: LYN (Homo sapiens, UniProt P07948); construct: purchased Caliper Life Sciences; test: Desktop Profiler kinase panel, LYN; format: biochemical; conditions: 10 micromolar concentration of the compound; read-out: Percent Inhibition LYN
Sequence (P07948 whole entry, species assumed): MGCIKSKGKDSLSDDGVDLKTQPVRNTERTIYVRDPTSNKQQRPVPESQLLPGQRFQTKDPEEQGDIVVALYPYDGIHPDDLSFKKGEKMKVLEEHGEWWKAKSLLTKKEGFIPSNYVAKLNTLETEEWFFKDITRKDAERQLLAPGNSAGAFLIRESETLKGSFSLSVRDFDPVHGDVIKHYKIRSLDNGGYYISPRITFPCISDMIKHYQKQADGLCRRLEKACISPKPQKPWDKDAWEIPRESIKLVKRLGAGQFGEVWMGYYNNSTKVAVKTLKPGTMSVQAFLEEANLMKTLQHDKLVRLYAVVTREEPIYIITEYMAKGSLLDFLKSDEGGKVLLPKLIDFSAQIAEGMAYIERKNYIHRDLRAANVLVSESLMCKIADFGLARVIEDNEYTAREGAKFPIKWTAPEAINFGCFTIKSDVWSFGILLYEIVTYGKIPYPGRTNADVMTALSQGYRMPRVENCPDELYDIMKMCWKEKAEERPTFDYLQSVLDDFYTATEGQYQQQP

query: Entry under review: O=c1[nH]c2nccc(Nc3ccc(Oc4ccccc4)cc3)c2c2ccccc12 . Reported inhibition at 10 µM?
result: 70 to 90%

New cases:
query: Entry under review: COc1ccccc1Nc1ccnc2[nH]c(=O)c3ccccc3c12 . Reported inhibition at 10 µM?
result: > 90%

query: Entry under review: COc1ccccc1Nc1ccc2c(=O)[nH]c3ncccc3c2c1 . Reported inhibition at 10 µM?
result: 70 to 90%

query: Entry under review: O=c1[nH]c2ncc(NCc3ccccc3)cc2c2ccccc12 . Reported inhibition at 10 µM?
result: 70 to 90%

query: Entry under review: Clc1nc2nccc(NCc3ccccc3)c2c2ccccc12 . Reported inhibition at 10 µM?
result: 70 to 90%
